Here the recorded IC50 is given for each entry.
Test system: HCT-116 human colorectal carcinoma cells
experiment: Cell-proliferation assay using Alamar Blue dye;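 further: cells exposed to compound for about 4 days, then Alamar Blue added and dye fluorescence read after about 4 h, compared with medium-only control wells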
Format: cell-based
conditions: Homo sapiens, HCT-116, second HCT-116 column (c8); read-out: HCT-116 (uM) cell proliferation modulatory activity

>  <input_smiles>
NC(=O)c1ccc2c(c1)nc(Nc1ccc(F)c(Cl)c1)c1ccncc12

>  <IC50>
> 10 µM

$$$$
>  <input_smiles>
CON(C)c1nc2cc(C(=O)O)ccc2c2cnccc12

>  <IC50>
> 10 µM

$$$$
>  <input_smiles>
Cc1nccn1CCNc1nc2cc(C#N)ccc2c2sccc12

>  <IC50>
> 10 µM

$$$$
>  <input_smiles>
COC(=O)c1ccc2c(c1)nc(N(C)CCc1ccccn1)c1ccncc12

>  <IC50>
> 10 µM

$$$$
>  <input_smiles>
CCN1CCC[C@@H]1CNc1nc2cc(-c3nnn[nH]3)ccc2c2sccc12

>  <IC50>
> 10 µM

$$$$
>  <input_smiles>
O=C(O)c1ccc2c(c1)nc(Nc1ccc(Br)cc1F)c1ccncc12

>  <IC50>
> 10 µM

$$$$
>  <input_smiles>
N#Cc1ccc2c(c1)nc(NCCCN)c1ccsc12

>  <IC50>
2.51 µM

$$$$
>  <input_smiles>
N#Cc1ccc2c(c1)nc(NCCc1ccccn1)c1ccsc12

>  <IC50>
> 10 µM

$$$$
>  <input_smiles>
N#Cc1cc(F)cc(Nc2nc3cc(C(=O)O)ccc3c3cnccc23)c1

>  <IC50>
> 10 µM

$$$$
>  <input_smiles>
CNC(=O)c1ccc2c(c1)nc(NCCN(C)C)c1ccsc12

>  <IC50>
> 10 µM

$$$$
>  <input_smiles>
O=C(O)c1ccc2c(c1)nc(N1CCc3ccccc31)c1ccncc12

>  <IC50>
> 10 µM

$$$$
>  <input_smiles>
CN(c1ccccc1)c1nc2cc(C(=O)O)ccc2c2nccnc12

>  <IC50>
> 10 µM

$$$$
>  <input_smiles>
CN(C)CCNc1nc2cc(C(=O)NC3CC3)ccc2c2sccc12

>  <IC50>
2.34 µM

$$$$

----------
test_target: recombinant human PIM1 (Homo sapiens (Human), UniProt P11309)
Sequence (P11309 whole entry): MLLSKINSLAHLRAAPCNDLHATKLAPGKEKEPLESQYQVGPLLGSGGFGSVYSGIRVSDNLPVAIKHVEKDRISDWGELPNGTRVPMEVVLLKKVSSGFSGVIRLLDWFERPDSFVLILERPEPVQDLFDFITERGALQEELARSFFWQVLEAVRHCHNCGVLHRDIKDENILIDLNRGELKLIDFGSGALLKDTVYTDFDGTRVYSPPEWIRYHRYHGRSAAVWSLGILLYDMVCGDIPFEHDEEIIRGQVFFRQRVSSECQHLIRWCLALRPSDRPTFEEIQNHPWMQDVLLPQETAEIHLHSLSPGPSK
experiment: PIM-1 kinase activity in cell-free in vitro assay
Assay type: biochemical
conditions: 500 nM compound, cell-free assay; read-out: PIM-1: % inh 500 nM
measured_attribute: inhibition at 0.5 µM

>  <compound>
O=C(O)c1ccc2c(c1)nc(Nc1ccc(Br)cc1)c1ccncc12

>  <measured_attribute>
inhibition at 0.5 µM

>  <meas_value>
76.7%

$$$$
>  <compound>
O=C(NCc1ccncc1)c1ccc2c(c1)nc(Nc1cccc(Cl)c1)c1ccncc12

>  <measured_attribute>
inhibition at 0.5 µM

>  <meas_value>
-12.8%

$$$$
>  <compound>
COC(=O)c1ccc2c(c1)nc(NC1CC1)c1nc(SC)ncc12 [drawing 1641]

>  <measured_attribute>
inhibition at 0.5 µM

>  <meas_value>
17.1%

$$$$
>  <compound>
Cc1ccc(C(N)=O)cc1Nc1nc2cc(C(=O)O)ccc2c2cnccc12

>  <measured_attribute>
inhibition at 0.5 µM

>  <meas_value>
9.95%

$$$$
>  <compound>
CC(=O)Nc1cccc(Nc2ncc3c(n2)c(NC2CC2)nc2cc(C(=O)O)ccc23)c1

>  <measured_attribute>
inhibition at 0.5 µM

>  <meas_value>
32%

$$$$
>  <compound>
CCN1CCCC1CNc1nc2cc(C(=O)O)ccc2c2cnccc12 (stereo not drawn)

>  <measured_attribute>
inhibition at 0.5 µM

>  <meas_value>
79.4%

$$$$
